# method: Primary qHTS for inhibitors of nuclear receptor binding SET domain protein 2 (NSD2) in an isogenic RCH-ACV NSD2 p.E1099K mutant (9B) (AID 1645876); also: nearly all actives have a fitted effect of over 70% in size
# test conditions: RCH-ACV (leukaemia line) NSD2 E1099K (9B) viability, CellTiter-Glo, 72 h; series mostly up to 44.9 µM
Records with an inconclusive call do not appear. Calls of active or inactive are those of the source. Calls follow the shape of the dose curve; as a rule, active = well fitted inhibition curve with a large enough effect; inconclusive = small, poorly fitted or top-dose-only effect; inactive = flat fitted curve, though single readings scatter.

| molecule | outcome |
| --- | --- |
| C=C(C)[C@@H](C)[C@H]1O[C@]23C[C@]4(CO2)C(CCC2[C@@]5(C)CC[C@H](O[C@@H]6OC[C@H](O)[C@H](O[C@@H]7O[C@H](CO)[C@@H](O)[C@H](O)[C@H]7O)[C@H]6O[C@@H]6O[C@@H](CO)[C@H](O)[C@H]6O)C(C)(C)C5CC[C@]24C)C3[C@@](C)(O)[C@@H]1OC(C)=O (some centres undefined) | inactive [at 9.23 µM] |
| C[C@@H]1O[C@@H](O[C@@H]2[C@@H](O)[C@@H](O)[C@H](O[C@@H]3[C@@H](O)[C@@H](O[C@]4(CO)O[C@H](CO)[C@@H](O)[C@@H]4OC(=O)/C=C/c4ccc(O)cc4)O[C@H](CO)[C@H]3OC(=O)/C=C/c3ccc(O)cc3)O[C@H]2C)[C@H](O)[C@H](O)[C@H]1O | inactive [at 9.23 µM] |
| C[C@@H]1O[C@@H](O[C@H]2[C@H](O[C@H]3CO[C@@H](O[C@H]4CC[C@@]5(C)C(CC[C@]6(C)C5CC[C@]57OC[C@@]8(CC[C@](C)(CO)CC85)[C@H](O)C[C@]76C)C4(C)C)[C@H](O[C@@H]4O[C@H](CO)[C@@H](O)[C@H](O)[C@H]4O)[C@H]3O)O[C@H](CO)[C@@H](O)[C@@H]2O)[C@H](O)[C@H](O)[C@H]1O (some centres undefined) | inactive [at 9.23 µM] |

###

# method: Drug repurposing screens with cells derived from glioblastoma tumor samples (AID 1345199); also: % is scaled to controls: 0 for no effect and ±100 for the full control effect; nearly all actives have a fitted effect of over 40% in size
# test conditions: GBM patient neurospheres viability, ATP luminescence, 48 h; at 21.2 µM (top of the series); tumour line D
Records with an inconclusive call do not appear.
Recorded activity, negative = cell killing by entry
recorded metric: activity, negative = cell killing (%)

| structure notation | recorded metric | experimental result |
| --- | --- | --- |
| CC1(C)S[C@@H]2[C@H](NC(=O)[C@@H](NC(=O)N3CCNC3=O)c3ccccc3)C(=O)N2[C@H]1C(=O)O | activity, negative = cell killing | -6.96 |
| CO[C@@H]1[C@@H](O[C@@H]2O[C@H](C)[C@@H](O[C@H]3C[C@@](C)(O)[C@@H](O)[C@H](C)O3)[C@H](N(C)C)[C@H]2O)[C@@H](CC=O)C[C@@H](C)[C@@H](O[C@@H]2CC[C@H](N(C)C)[C@@H](C)O2)/C=C/C=C/C[C@@H](C)OC(=O)C[C@H]1O | activity, negative = cell killing | 8.89 |
| CCOC(=O)O[C@]1(C(=O)COC(=O)CC)CC[C@H]2[C@@H]3CCC4=CC(=O)C=C[C@]4(C)[C@H]3[C@@H](O)C[C@@]21C | activity, negative = cell killing | -9.53 |

###

# Test system: DFO2036
# method: qHTS profiling for inhibitors of Plasmodium falciparum proliferation (AID 504749); also: nearly all actives have a fitted effect of over 60% in size
# test conditions: P. falciparum in erythrocytes, SYBR Green DNA, 72 h; series mostly up to 28.7 µM
# Protocol: NIH National Institute of Allergy and Infectious Diseases [NIAID] NIH Chemical Genomics Center [NCGC] […] Because mature erythrocytes lack DNA, only Plasmodium-derived DNA is detected. NCGC Assay Protocol Summary: The SYBR Green viability assay was adapted from a method described previously (Plouffe et al., 2008). […] The following morning, fluorescence intensity at 485(14) nm excitation and 535(25) nm emission wavelengths was measured on an EnVision (Perkin Elmer) plate reader. […]
Results filed as inconclusive are left out. Calls of active or inactive are those of the source. Calls follow the shape of the dose curve; as a rule, active = well fitted inhibition curve with a large enough effect; inconclusive = small, poorly fitted or top-dose-only effect; inactive = flat fitted curve, though single readings scatter.
Possible outcomes: active, inactive

| compound | target desc | category label |
| --- | --- | --- |
| CN(C)CCCN1c2ccccc2C(C)(C)c2ccccc21 | DFO2036 | inactive |
| COC(=O)C1=C(C#N)NC(C)=C(C(=O)OC(C)C)C1c1cccc([N+](=O)[O-])c1 (stereo not given) | DFO2036 | active |
| CC(C(=O)O)c1ccc(N2Cc3ccccc3C2=O)cc1 (stereo not given) | DFO2036 | inactive |
| Cc1c(C)c2c(c(C)c1O)CC[C@@](C)(CCC[C@@H](C)CCC[C@@H](C)CCCC(C)C)O2 | DFO2036 | inactive |
| CC(C)(C)C(=O)OCOC(=O)[C@@H]1N2C(=O)[C@@H](N=CN3CCCCCC3)[C@H]2SC1(C)C | DFO2036 | inactive |
| C#CCOc1ccc2c(C)cc(=O)oc2c1 | DFO2036 | inactive |
| Nc1ncnc2c1ncn2[C@@H]1O[C@H](COP(=O)(O)OP(=O)(O)OP(=O)(O)O)[C@@H](O)[C@H]1O | DFO2036 | inactive |
| COC(=O)[C@H]1[C@H]2C[C@@H]3c4[nH]c5ccccc5c4CCN3C[C@H]2C[C@@H](OC(=O)c2cc(OC)c(OC)c(OC)c2)[C@@H]1OC | DFO2036 | active |
| COCC(=O)Nc1cc(Sc2ccccc2)ccc1N=C(NC(=O)OC)NC(=O)OC | DFO2036 | inactive |
| C[C@H]1C[C@H]2[C@@H]3CCC4=CC(=O)C=C[C@]4(C)[C@@]3(F)[C@@H](O)C[C@]2(C)[C@@]1(O)C(=O)CO | DFO2036 | inactive |
| CCOc1ccc(N=Nc2ccc(N)cc2N)cc1 | DFO2036 | inactive |
| CCOC(C)=O | DFO2036 | inactive |
| CC(NNC(=O)c1ccccc1)c1ccccc1 (stereo not given) | DFO2036 | inactive |
| Nc1c(N=Nc2ccc(-c3ccc(N=Nc4cc(S(=O)(=O)O)c5ccccc5c4N)cc3)cc2)cc(S(=O)(=O)O)c2ccccc12 | DFO2036 | inactive |
| CC[C@@]1(O)C(=O)OCc2c1cc1n(c2=O)Cc2cc3c([N+](=O)[O-])cccc3nc2-1 | DFO2036 | active |
| C[C@]12O[C@H](C[C@]1(O)CO)n1c3ccccc3c3c4c(c5c6ccccc6n2c5c31)CNC4=O | DFO2036 | active |
| Cc1ccccc1OCC(O)CNCCOc1ccc(C(N)=O)cc1 (stereo not given) | DFO2036 | inactive |
| O=S(=O)(O)c1ccc2c(N=Nc3ccc(S(=O)(=O)O)c4ccccc34)c(O)c(S(=O)(=O)O)cc2c1 | DFO2036 | inactive |
| O=C(O)CN(CCN(CC(=O)O)CC(=O)O)CC(=O)O | DFO2036 | inactive |
| NC(=O)c1ncn(C2OC(CO)C(O)C2O)n1 (stereo not given) | DFO2036 | inactive |

###

# System: 3D7
# method: qHTS profiling for inhibitors of Plasmodium falciparum proliferation (AID 504749); also: nearly all actives have a fitted effect of over 60% in size
# test conditions: P. falciparum in erythrocytes, SYBR Green DNA, 72 h; series mostly up to 28.7 µM
Records with an inconclusive call do not appear. Activity calls are given as the source filed them. The call rests on the fitted dose curve; in most records, active means well fitted inhibition curve with a large enough effect; inconclusive means small, poorly fitted or top-dose-only effect; inactive means flat fitted curve, though single readings scatter.
Possible outcomes: active, inactive

| compound | category label |
| --- | --- |
| CCN(CC)Cc1cc(Nc2ccnc3cc(Cl)ccc23)ccc1O | active |
| COC(C(=O)C(O)C(C)O)C1Cc2cc3cc(OC4CC(OC5CC(O)C(O)C(C)O5)C(O)C(C)O4)c(C)c(O)c3c(O)c2C(=O)C1OC1CC(OC2CC(OC3CC(C)(O)C(O)C(C)O3)C(O)C(C)O2)C(O)C(C)O1 (stereo not given) | active |
| CC(=O)Oc1cc(C)c(OC(C)=O)c2ccccc12 | active |
| CCOC(=O)C1=C(C)NC(C)=C(C(=O)OCC)C1c1ccccc1C=CC(=O)OC(C)(C)C | active |
| Oc1cc(O)c2c(c1)OC(c1ccc(O)c(O)c1)C(O)C2 (stereo not given) | inactive |
| CCCCCCCCCCCC[n+]1ccc2ccccc2c1 | active |
| IC(I)I | inactive |
| CC1=C(/C=C/C(C)=C/C=C/C(C)=C/C=C/C=C(C)/C=C/C=C(C)/C=C/C2=C(C)C(=O)CCC2(C)C)C(C)(C)CCC1=O | inactive |
| CCOC(=O)C1=CC2(CC)CCCN3CCc4c(n1c1ccccc41)C32 (stereo not given) | active |
| CCCCCCOc1ccc(C(=N)N(CCCC)CCCC)c2ccccc12 | active |

###

Catalogue of compounds with associated Potency
# target desc: Phospholipid hydroperoxide glutathione peroxidase GPX4 (Homo sapiens)
# method: Primary qHTS Assay for Inhibitors of Recombinant Selenoprotein Glutathione Peroxidase 4 (GPX4) (AID 1845192); also: potency is read from the fitted curve at half-maximal effect; nearly all actives have a fitted effect of over 65% in size
# test conditions: recombinant GPX4, GR-coupled NADPH fluorescence, 15 min; series mostly up to 50 µM
Inconclusive results are not listed. Calls of active or inactive are those of the source. Calls follow the shape of the dose curve; as a rule, active = well fitted inhibition curve with a large enough effect; inconclusive = small, poorly fitted or top-dose-only effect; inactive = flat fitted curve, though single readings scatter. Where a SMILES comes first, the peptide text is derived from it. The star is where a group is joined. AFC = O=c1cc(C(F)(F)F)c2ccc(N*)cc2o1

| compound | Potency |
| --- | --- |
| C[C@]12CCC(=O)C=C1CC[C@@H]1[C@@H]2[C@@H](O)C[C@@]2(C)[C@H]1CC[C@]2(O)C(=O)COP(=O)(O)O | 6.31 µM (active) |
| COC(=O)[C@H]1[C@H]2C[C@@H]3c4[nH]c5ccccc5c4CCN3C[C@H]2C[C@@H](OC(=O)c2cc(OC)c(OC)c(OC)c2)[C@@H]1OC | 17.8 µM (active) |
| CC(Cc1ccc(O)c(O)c1)C(C)Cc1ccc(O)c(O)c1 (stereo not given) | 11.2 µM (active) |
| CC[C@@H](C(=O)[C@@H](C)[C@@H](O)[C@H](C)CCc1ccc(C)c(O)c1C(=O)O)[C@H]1O[C@](CC)([C@H]2CC[C@](O)(CC)[C@H](C)O2)C[C@@H]1C | 4.47 µM (active) |
| NCc1ccccc1CC(=O)N[C@@H]1C(=O)N2C(C(=O)O)=C(CSc3nnnn3CC(=O)O)CS[C@H]12 | 15.8 µM (active) |
| O=C(O)c1ccc(CCCc2ccc(OCCc3ccc(F)cc3)cc2)o1 | 16.1 µM (active) |
| CCOc1ccc2c(c1)C(C)=CC(C)(C)N2 | 31.6 µM (active) |
| CC[C@@]1(O)C(=O)OCc2c1cc1n(c2=O)Cc2cc3c([N+](=O)[O-])cccc3nc2-1 | 35.5 µM (active) |
| CC(=O)N[C@@H](CC(C)C)C(=O)N[C@@H](CCC(=O)O)C(=O)N[C@@H](CCC(=O)O)C(=O)N[C@@H](CC(=O)O)C(=O)Nc1ccc2c(C(F)(F)F)cc(=O)oc2c1 (Ac-LEED-{AFC}) | 20.2 µM (active) |
| CO/N=C(/C(=O)N[C@@H]1C(=O)N2C(C(=O)O)=C(CSC(=O)c3ccco3)CS[C@H]12)c1csc(N)n1 | 7.08 µM (active) |

Hey, just so you know, these numbers are from PubChem BioAssay (NCATS).
